target: T1, amino acid residues 26-148 of human ANGPTL4 fused in-line to mouse IgG2a (hANGPTL4-mFc) (human)
T1 chain: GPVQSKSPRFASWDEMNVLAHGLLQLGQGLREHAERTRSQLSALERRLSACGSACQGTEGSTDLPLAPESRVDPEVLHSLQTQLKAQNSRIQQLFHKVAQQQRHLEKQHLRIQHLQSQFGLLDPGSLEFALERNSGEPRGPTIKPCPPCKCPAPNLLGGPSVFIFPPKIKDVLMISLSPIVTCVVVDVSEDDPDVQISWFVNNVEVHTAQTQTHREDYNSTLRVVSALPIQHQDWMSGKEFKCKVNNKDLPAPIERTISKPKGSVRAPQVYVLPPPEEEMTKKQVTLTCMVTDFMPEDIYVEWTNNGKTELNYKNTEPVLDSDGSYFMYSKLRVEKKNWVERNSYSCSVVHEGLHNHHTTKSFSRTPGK
testProtocol: cell-based or functional assay
The binders listed here are annotated with their IC50 (nM) in the LPL inhibition assay, constant ANGPTL4 2 nM.
Write it as a number; the unit nM goes unstated.

binder	value
H4H268P2 (antibody, human IgG4 S228P, V domains shown, IgG4 version of H1H268P) VH: QVQLQQSGAGLLKPSETLSLTCTVYGGSFSIHHWTWIRHPPGKGLEWIGEINHRGSTNYNPSLKSRVTISIDTSKNQFSLKLSAVTAADTAVYYCARGLRFLDWLSSYFDYWGQGTLVTVSS VL: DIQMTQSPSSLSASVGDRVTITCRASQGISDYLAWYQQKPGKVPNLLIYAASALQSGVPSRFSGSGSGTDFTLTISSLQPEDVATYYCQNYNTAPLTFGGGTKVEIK	1.85
H4H284P (antibody, human IgG4 S228P, V domains shown, IgG4 version of H1H284P (constant region replaced)) VH: QVQLVESGGGVVQPGRSLRLSCAASGFTFSSYGMHWVRQAPGKGLEWMAVISFDGGNKNNADSVKGRFTISRDNSKNTLYLQMNSLRAEDTAVYYCAKEGDRSGHPYFYYYGLDVWGQGTTVTVSA VL: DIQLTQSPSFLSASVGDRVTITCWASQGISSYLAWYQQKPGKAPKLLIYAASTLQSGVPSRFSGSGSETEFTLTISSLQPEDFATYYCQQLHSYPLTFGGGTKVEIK	1.69
H1H284P (antibody, V domains shown, also called entire H1H284 mAb; Full mAb) VH: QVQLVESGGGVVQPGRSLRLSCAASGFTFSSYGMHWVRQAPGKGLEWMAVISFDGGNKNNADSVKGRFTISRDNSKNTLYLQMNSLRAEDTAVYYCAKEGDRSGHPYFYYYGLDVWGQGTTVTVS VL: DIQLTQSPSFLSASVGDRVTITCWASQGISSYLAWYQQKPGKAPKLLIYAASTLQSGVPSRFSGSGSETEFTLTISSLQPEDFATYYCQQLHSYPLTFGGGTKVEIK	0.33

Asked: Consider the binder shown here: H1H268P (antibody, V domains shown, also called entire H1H268 mAb; Full mAb) VH: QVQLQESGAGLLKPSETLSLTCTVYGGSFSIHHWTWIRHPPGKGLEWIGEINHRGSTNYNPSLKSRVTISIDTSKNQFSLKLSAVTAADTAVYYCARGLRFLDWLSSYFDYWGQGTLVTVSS VL: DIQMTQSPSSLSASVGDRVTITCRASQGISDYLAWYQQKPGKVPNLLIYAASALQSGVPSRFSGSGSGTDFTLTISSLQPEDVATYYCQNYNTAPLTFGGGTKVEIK What is its recorded IC50 (nM) in the LPL inhibition assay, constant ANGPTL4 2 nM?
Given back: 0.67

Entry source: patent US20130266574A1
